Recorded inhibition, one value per entry.
target-desc: Genome polyprotein (Dengue virus type 2 (strain 16681-PDK53)) (UniProt P29991)
test-protocol: flavivirus cap methylation enzyme inhibition – biochemical, confirmation dose response, primary screen (AID 588689)
recorded-conditions: Dengue-2 NS5 methyltransferase capping enzyme assay, at 25 µM, active compounds read high
Screen size: about 340,000 compounds; about 1,000 (0.29%) were called active. Not all results are given here. Results with a measured potency or affinity are listed apart.

inhibition in this record for Oc1ccc(CNC2CCCCC2)cc1 : -4.06% (inactive)

inhibition in this record for CC(C)(CNC(=O)c1ccccc1F)CNC(=O)c1ccccc1F : 3.07% (inactive)

inhibition in this record for O=C1C=C(N2CCOCC2)c2ccccc2C1=O : 9.17% (inactive)

inhibition in this record for O=C(NC(=S)NCc1ccccc1)c1ccccc1[N+](=O)[O-] : -9.35% (inactive)

inhibition in this record for Cc1nc2nc(-c3ccccc3)cn2nc1C : -1.38% (inactive)

inhibition in this record for CN(C)CCCN1CC(=O)N2[C@@H](Cc3c([nH]c4ccccc34)C2(C)C)C1=O : 5.89% (inactive)

inhibition in this record for O=C(NCCC1=CCCCC1)c1ccc(Cl)c([N+](=O)[O-])c1 : 0% (inactive)

###

target-desc: Genome polyprotein (Dengue virus type 2 (strain 16681-PDK53))
test-protocol: flavivirus cap methylation enzyme inhibition – biochemical, confirmation dose response, primary screen (AID 588689)
recorded-conditions: Dengue-2 NS5 methyltransferase capping enzyme assay, at 25 µM, active compounds read high
The whole screen tested about 340,000 compounds, of which about 1,000 (0.29%) were called active. These entries were drawn from the full list. Potency and affinity values are given separately.
assay-readout: inhibition (%)
Only the number, expressed in %, is required.

Solved entries:
CCOc1ccc(NC(=O)c2ccc(S(=O)(=O)N3CCOCC3)cc2)cc1 : 1.78
CN1CCN(C(=O)CCN2C(=O)/C(=C\c3ccc(Cl)cc3Cl)SC2=S)CC1 : 0
Cn1c(=O)[nH]c(=O)c2c1nc(N1CCOCC1)n2CCN1CCOCC1 : 1.62
COc1ccc(-c2ccc(/C=C3\C(=O)N(c4ccccc4)N=C3c3ccccc3)o2)c([N+](=O)[O-])c1 : 6.61
O=C1ON=C(c2ccccc2[N+](=O)[O-])/C1=C/c1cccc([N+](=O)[O-])c1O : -2.21
O=C(Nc1ccc(F)cc1)c1cc2cc(Cl)ccc2[nH]1 : 1.32
O=C(CCCN1C(=O)/C(=C/c2ccccc2Cl)SC1=S)NNC(=O)c1ccc(Cl)cc1Cl : 3.09
O=C1/C(=C\c2ccc(-c3ccccc3[N+](=O)[O-])o2)C(c2ccccc2)=NN1c1ccccc1 : 68.8
C=CCOc1ccc(/C=C/C(=O)OCC(=O)NCCCc2ccccc2)cc1 : 0

Okay, next one:
Lab entry: Genome polyprotein (Dengue virus type 2 (strain 16681-PDK53)) assay, compound CCCOc1ccccc1N/C(=N/c1nc(C)cc(C)n1)NC(=O)Nc1ccc(Cl)cc1 , inhibition = -4.07

###

Recorded inhibition, one value per entry.
target-desc: Genome polyprotein (Dengue virus type 2 (strain 16681-PDK53)) (UniProt P29991)
test-protocol: flavivirus cap methylation enzyme inhibition – biochemical, confirmation dose response, primary screen (AID 588689)
recorded-conditions: Dengue-2 NS5 methyltransferase capping enzyme assay, at 25 µM, active compounds read high
Out of some 340,000 compounds screened, about 1,000 (0.29%) were called active. These entries were drawn from the full list. Entries with a potency or affinity are not part of this list.
Only the number, expressed in %, is required.

Solved entries:
Cc1cc(C)c(N2C(=O)C3C4CC(=O)C(c5ccccc54)C3C2=O)c(C)c1 (stereo not given) : -3.14
CCOC(=O)c1nn(-c2ccccc2)c(=O)c2c(N)scc12 : 7.81
Clc1ccc(-c2csc(-c3ccno3)n2)cc1 : -5.36
CC(C)(C)c1ccc(S(=O)(=O)Nc2ccccn2)cc1 : 2.21
C/C(=N\NS(=O)(=O)c1ccc(C(C)(C)C)cc1)c1ccccc1 : -0.98

inhibition in this record for COc1ccc(/C=N/NC(=O)c2nn(-c3ccc(Cl)cc3)c(=O)c3c(N)scc23)cc1 : 65.9

inhibition in this record for Cc1ccc(S(=O)(=O)/N=C2\C=C(Nc3ccc(O)cc3)C(=O)c3ccccc32)cc1 : -0.74

inhibition in this record for Cc1nnc(SCC(=O)Nc2nc3ccccc3s2)n(N)c1=O : -2.58

inhibition in this record for O=C(Nc1ccc2oc(=O)ccc2c1)c1cc([N+](=O)[O-])ccc1N1CCOCC1 : -4.64

inhibition in this record for Cc1ccc(C(=O)O)cc1NS(=O)(=O)c1ccc2c(c1)oc(=O)n2C : -6.53
